Quick list: pIC50 per entry.
Target: human renin (Homo sapiens)
Sequence (P00797 67-406): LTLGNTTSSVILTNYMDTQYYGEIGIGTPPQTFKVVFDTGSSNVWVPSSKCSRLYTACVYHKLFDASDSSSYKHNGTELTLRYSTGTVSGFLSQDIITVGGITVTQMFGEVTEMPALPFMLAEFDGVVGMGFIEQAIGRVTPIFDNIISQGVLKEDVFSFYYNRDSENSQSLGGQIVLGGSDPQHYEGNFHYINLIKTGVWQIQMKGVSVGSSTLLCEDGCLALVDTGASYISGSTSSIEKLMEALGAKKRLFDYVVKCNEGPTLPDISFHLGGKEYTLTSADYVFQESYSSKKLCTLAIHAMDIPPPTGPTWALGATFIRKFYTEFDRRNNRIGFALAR
Test: Determination of renin IC50 by tGFP FRET assay
Settings: Human recombinant renin, tandem GFP substrate 650 nM, 60 min incubation with compound, pH 7.4, 11-point curve
pIC50: −log10 of the molar value.
parameter-measured: pIC50

{"columns": ["chemical-structure", "qual", "val"],
 "data": [
  ["COC(=O)CCN1CCCc2ccc(OC[C@H]3CNCC(=O)N3c3ccc(OCCCOCc4ccccc4OC)cc3)cc21", "=", 9.44],
  ["COc1ccccc1COCCCOc1ccc(N2C(=O)CNC[C@@H]2COCc2ccccc2)cc1", "=", 5.15],
  ["COc1ccccc1COCCCOc1ccc(N2C(=O)CNC[C@@H]2COC(=O)c2ccc(Cl)cc2)cc1", "<", 6.00],
  ["COCCCN1C(=O)CCc2ccc(OC[C@@H]3CNCC(=O)N3c3ccc(OCCCOCc4ccccc4OC)cc3)cc21", "=", 8.77],
  ["COc1ccccc1COCCCOc1ccc(N2C(=O)CNC[C@@H]2CNC(=O)c2ccccc2OC)cc1", "<", 6.00],
  ["COc1ccccc1COCCCOc1ccc(N2C(=O)CNC[C@@H]2COc2ccc3ccccc3n2)cc1", "=", 4.88],
  ["COc1ccccc1COCCCOc1ccc(N2C(=O)CNC[C@@H]2COC(=O)c2ccc3ccccc3c2)cc1", "<", 6.00],
  ["COc1ccccc1COCCCOc1ccc(N2CCNC[C@@H]2COc2ccc3c(c2)CCCC3)cc1", "=", 6.36],
  ["COc1ccccc1COCCCOc1ccc(N2C(=O)CNC[C@@H]2COCc2cc(F)cc(F)c2)cc1", "=", 5.80],
  ["COc1ccccc1COCCCOc1ccc(N2C(=O)CNC[C@@H]2COCc2cccnc2)cc1", "=", 6.93],
  ["COc1ccccc1COCCCOc1ccc(N2C(=O)CNC[C@@H]2CNC(=O)c2ccccc2F)cc1", "<", 6.00],
  ["COc1ccccc1COCCCOc1ccc(N2CCNC[C@@H]2COCc2ccc3ccccc3c2)cc1", "=", 5.77],
  ["COc1ccccc1CCOCCOc1ccc(N2CCNC[C@@H]2COc2ccc3ccccc3c2)cc1", "=", 5.97],
  ["COc1ccccc1COCCCOc1ccc(N2C(=O)CNC[C@@H]2COCc2cccc(F)c2)cc1", "<", 6.00],
  ["COC(=O)CN1C(=O)COc2ccc(OC[C@H]3CNCC(=O)N3c3ccc(OCCCOCc4ccccc4OC)cc3)cc21", "=", 8.17],
  ["COc1ccccc1COCCCOc1ccc(N2C(=O)CNC[C@@H]2COc2ccccn2)cc1", "=", 4.68],
  ["COc1ccccc1COCCCOc1ccc(N2C(=O)CNC[C@@H]2COc2ccc3c(c2)N(CC(N)=O)CCC3)cc1", "=", 6.36],
  ["COc1ccccc1COCCCOc1ccc(N2C(=O)CNC[C@@H]2COc2ccc3c(c2)N(Cc2cscn2)CCC3)cc1", "=", 6.42],
  ["COc1ccccc1COCCCOc1ccc(N2C(=O)CNC[C@@H]2COCc2ccc(C)cc2)cc1", "=", 6.47],
  ["COc1ccccc1COCCCOc1ccc(N2C(=O)CNC[C@@H]2COc2ccc3ccccc3c2)cc1F", "=", 6.82],
  ["COc1ccccc1COCCCOc1ccc(N2C(=O)CNC[C@H]2COc2ccc3ccccc3c2)cc1", "=", 7.18],
  ["COc1ccc(COC[C@H]2CNCCN2c2ccc(OCCCOCc3cccc(Cl)c3)cc2)cc1", "=", 5.30],
  ["COc1ccccc1COCCCOc1ccc(N2C(=O)CNC[C@@H]2COCc2ccc(Cl)c(Cl)c2)cc1", "=", 6.74],
  ["COc1ccccc1COCCCOc1ccc(N2C(=O)CNC[C@@H]2COc2ccc3ccccc3c2)cc1Cl", "<", 6.00]
]}

----------
Each item that follows carries a reported log10(IC50).
biological target: human renin (Homo sapiens); test: Determination of renin IC50 by tGFP FRET assay; conditions: Human recombinant renin, tandem GFP substrate 650 nM, 60 min incubation with compound, pH 7.4, 11-point curve
parameter-measured: log10(IC50) (log10 of the value in nM)

{"columns": ["compound", "log10(IC50)"],
 "data": [
  ["COc1ccccc1OCCCOCc1ccc(N2CCNC[C@@H]2COc2ccc3ccccc3c2)cc1 [Example 97]", 4.42],
  ["COc1ccc(COC[C@H]2CNCCN2c2ccc(OCCCOCc3ccc(C)cc3)cc2)cc1 [Example 68]", 4.78],
  ["COc1ccc(COC[C@H]2CNCCN2c2ccc(OCCCOCc3cc(F)cc(F)c3)cc2)cc1 [Example 67]", 3.64],
  ["CCC(=O)OCCN1CCCc2ccc(OC[C@H]3CNCC(=O)N3c3ccc(OCCCOCc4ccccc4OC)cc3)cc21 [Example 123]", 0.95],
  ["COCCCN1C(=O)CCc2ccc(OC[C@H]3CNCC(=O)N3c3ccc(OCCCOCc4ccccc4OC)cc3)cc21 [Example 111]", 0.59],
  ["COc1ccccc1COCCCOc1c(F)cc(N2C(=O)CNC[C@@H]2COc2ccc3ccccc3c2)cc1F [Example 43]", 2.95],
  ["COc1ccccc1OCCCCOc1ccc(N2C(=O)CNC[C@@H]2COCc2ccc(F)cc2)cc1 [Example 71]", 3.58],
  ["COc1ccccc1COCCCOc1ccc(N2C(=O)CNC[C@@H]2COc2ccc3c(c2)N(CCO)CCC3)cc1 [Example 57]", 1.81],
  ["COc1ccccc1COCCCOc1ccc(N2C(=O)CNC[C@@H]2COCc2ccccc2F)cc1 [Example 3]", 2.35],
  ["COc1ccccc1COCCCOc1ccc(N2CCNC[C@@H]2COc2ccc3c(c2)N(CCNC(C)=O)CCC3)cc1 [Example 125]", -0.28],
  ["COc1ccccc1COCCCOc1ccc(N2C(=O)CNC[C@@H]2COc2ccc3c(c2)N(CCNC(C)=O)CCC3)cc1 [Example 124]", -0.46]
]}

----------
target: human renin (Homo sapiens); assay: Determination of renin IC50 by tGFP FRET assay; details: Human recombinant renin, tandem GFP substrate 650 nM, 60 min incubation with compound, pH 7.4, 11-point curve
IC50 values by entry

{"columns": ["compound", "IC50"],
 "data": [
  ["COc1ccc(COC[C@H]2CNCCN2c2ccc(COCCCOc3ccccc3OC)cc2)cc1 [Example 70]", "> 1000 nM"],
  ["COc1ccccc1COCCCOc1ccc(N2C(=O)CNC[C@@H]2COc2ccc(NC(C)=O)cc2)cc1 [Example 93]", "> 1000 nM"],
  ["COc1ccccc1COCCCOc1ccc(N2C(=O)CNC[C@@H]2COCc2ccc(F)cc2Cl)cc1 [Example 22]", "> 1000 nM"]
]}

----------
IC50 values by entry
biological target: human renin (Homo sapiens); assay: Determination of renin IC50 by tGFP FRET assay; details: Human recombinant renin, tandem GFP substrate 650 nM, 60 min incubation with compound, pH 7.4, 11-point curve

{"columns": ["chemical-structure", "experimental-target", "IC50"],
 "data": [
  ["COc1ccc(COC[C@H]2CNCCN2c2ccc(OCCCOCc3ccccc3)cc2)cc1", "human renin (Homo sapiens)", "10900 nM"],
  ["CCOCCNC(=O)c1ccc(N2C(=O)CNC[C@@H]2COc2ccc3ccccc3c2)cc1", "human renin (Homo sapiens)", "> 1000 nM"],
  ["COc1ccccc1COCCCOc1ccc(N2C(=O)CNC[C@@H]2COC(=O)c2ccccc2)cc1", "human renin (Homo sapiens)", "> 1000 nM"],
  ["COC(=O)c1cc(N2C(=O)CNC[C@@H]2COc2ccc3ccccc3c2)ccc1OCCCOCc1ccccc1OC", "human renin (Homo sapiens)", "> 1000 nM"]
]}

Recorded values, source patent US20040214832A1.
